The origin of these recorded values is paper PMC12586182.

# TARGET OR SYSTEM: NEK6 (Homo sapiens, UniProt Q9HC98)
# Construct: purchased Carna Biosciences
# Sequence (Q9HC98 whole entry): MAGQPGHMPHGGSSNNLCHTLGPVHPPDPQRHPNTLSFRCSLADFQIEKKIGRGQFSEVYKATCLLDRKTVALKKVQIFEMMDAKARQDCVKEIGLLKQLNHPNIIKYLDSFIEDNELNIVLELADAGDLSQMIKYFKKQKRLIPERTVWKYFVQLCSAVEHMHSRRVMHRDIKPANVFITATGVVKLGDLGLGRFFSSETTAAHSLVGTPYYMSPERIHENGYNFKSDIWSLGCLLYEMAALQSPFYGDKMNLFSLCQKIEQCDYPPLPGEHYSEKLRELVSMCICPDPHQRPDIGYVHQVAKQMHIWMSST
# ASSAY COMMENT: Kinase panel profiling at 1 µmol/L (mobility shift assay, Carna)
# Type: biochemical
# MEASUREMENT SETUP: 1 µmol/L of BTK inhibitor
VALUE KIND: Percentage inhibition of kinase enzyme activity (%)
# unit: % | format: bare number

Example entries begin here.
CC#CC(=O)N1CCC[C@H]1c1nc(-c2ccc(C(=O)Nc3ccccn3)cc2)c2c(N)nccn12 [acalabrutinib]    -5.54
O=C(c1ccc(Oc2ccccc2)cc1Cl)c1c[nH]c2ncnc(N[C@@H]3CC[C@@H](CO)OC3)c12 [nemtabrutinib]    -0.80
COc1ccc(F)cc1C(=O)NCc1ccc(-c2nn([C@@H](C)C(F)(F)F)c(N)c2C(N)=O)cc1 [pirtobrutinib]    -2.92

Shifting focus to the compound that follows.
Looking up C=CC(=O)N1CCC[C@@H](n2nc(-c3ccc(Oc4ccccc4)cc3)c3c(N)ncnc32)C1 [ibrutinib] , I found its Percentage inhibition of kinase enzyme activity recorded as 0.77

###

# Test system: UWB1.289
# ASSAY COMMENT: Cell viability assay (ATPlite)
# Format: cell-based
# MEASUREMENT SETUP: Homo sapiens, UWB1289; UWB1.289 cell line, 72 hours incubation
VALUE KIND: IC50
The answer should read as a number with its unit following.

UWB1.289 IC50 of "O=C(c1ccc(Oc2ccccc2)cc1Cl)c1c[nH]c2ncnc(N[C@@H]3CC[C@@H](CO)OC3)c12" is 2.49 µM

###

Entries and their measured Percentage inhibition of kinase enzyme activity follow.
# TARGET OR SYSTEM: p70S6Kβ (Homo sapiens, UniProt Q9UBS0)
# Construct: purchased Carna Biosciences
# Sequence (Q9UBS0 whole entry): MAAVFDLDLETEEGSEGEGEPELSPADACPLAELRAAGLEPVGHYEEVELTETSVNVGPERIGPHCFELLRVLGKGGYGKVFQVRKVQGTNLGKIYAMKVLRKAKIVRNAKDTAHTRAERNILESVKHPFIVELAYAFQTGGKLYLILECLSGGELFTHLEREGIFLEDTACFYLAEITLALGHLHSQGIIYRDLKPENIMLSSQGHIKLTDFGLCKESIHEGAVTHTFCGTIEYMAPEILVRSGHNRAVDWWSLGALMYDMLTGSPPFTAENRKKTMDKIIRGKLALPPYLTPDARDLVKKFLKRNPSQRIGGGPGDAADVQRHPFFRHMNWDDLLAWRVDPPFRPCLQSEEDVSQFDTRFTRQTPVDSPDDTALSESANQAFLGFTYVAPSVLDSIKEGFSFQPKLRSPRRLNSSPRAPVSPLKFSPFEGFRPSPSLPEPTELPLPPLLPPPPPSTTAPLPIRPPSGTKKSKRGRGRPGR
# ASSAY COMMENT: Kinase panel profiling at 1 µmol/L (mobility shift assay, Carna)
# Format: biochemical
# MEASUREMENT SETUP: 1 µmol/L of BTK inhibitor
# unit: % | format: bare number

Example entries begin here.
COc1ccc(F)cc1C(=O)NCc1ccc(-c2nn([C@@H](C)C(F)(F)F)c(N)c2C(N)=O)cc1    10.01
CC#CC(=O)N1CCC[C@H]1c1nc(-c2ccc(C(=O)Nc3ccccn3)cc2)c2c(N)nccn12    -14.17
C=CC(=O)N1CCC[C@@H](n2nc(-c3ccc(Oc4ccccc4)cc3)c3c(N)ncnc32)C1    0.87

Shifting focus to the molecule that follows.
Looking up "O=C(c1ccc(Oc2ccccc2)cc1Cl)c1c[nH]c2ncnc(N[C@@H]3CC[C@@H](CO)OC3)c12" , I found its Percentage inhibition of kinase enzyme activity recorded as 4.30

###

# TARGET OR SYSTEM: PAK4 (Homo sapiens, UniProt O96013)
# Construct: purchased Carna Biosciences
# Sequence (O96013 whole entry): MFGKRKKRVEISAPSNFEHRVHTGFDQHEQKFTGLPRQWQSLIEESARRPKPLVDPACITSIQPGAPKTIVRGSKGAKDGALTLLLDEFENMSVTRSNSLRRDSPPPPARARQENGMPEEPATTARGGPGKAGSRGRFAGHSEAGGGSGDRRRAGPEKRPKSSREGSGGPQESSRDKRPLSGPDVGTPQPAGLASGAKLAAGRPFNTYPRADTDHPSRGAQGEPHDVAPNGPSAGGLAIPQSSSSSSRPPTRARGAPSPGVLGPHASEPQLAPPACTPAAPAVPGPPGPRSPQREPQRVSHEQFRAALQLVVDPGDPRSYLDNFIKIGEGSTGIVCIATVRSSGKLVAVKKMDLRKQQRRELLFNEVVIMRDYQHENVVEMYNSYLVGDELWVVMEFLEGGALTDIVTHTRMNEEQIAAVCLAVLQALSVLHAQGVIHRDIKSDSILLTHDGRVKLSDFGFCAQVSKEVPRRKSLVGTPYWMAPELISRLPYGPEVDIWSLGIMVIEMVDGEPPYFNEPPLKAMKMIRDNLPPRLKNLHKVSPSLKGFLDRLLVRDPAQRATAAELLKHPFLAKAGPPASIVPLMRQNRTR
# ASSAY COMMENT: Kinase panel profiling at 1 µmol/L (mobility shift assay, Carna)
# Type: biochemical
# MEASUREMENT SETUP: 1 µmol/L of BTK inhibitor
Entries and their measured Percentage inhibition of kinase enzyme activity follow.
# unit: % | format: bare number

Example entries begin here.
COc1ccc(F)cc1C(=O)NCc1ccc(-c2nn([C@@H](C)C(F)(F)F)c(N)c2C(N)=O)cc1 [pirtobrutinib]    4.35
CC#CC(=O)N1CCC[C@H]1c1nc(-c2ccc(C(=O)Nc3ccccn3)cc2)c2c(N)nccn12 [acalabrutinib]    -1.65
C=CC(=O)N1CCC[C@@H](n2nc(-c3ccc(Oc4ccccc4)cc3)c3c(N)ncnc32)C1 [ibrutinib]    10.65

Looking up O=C(c1ccc(Oc2ccccc2)cc1Cl)c1c[nH]c2ncnc(N[C@@H]3CC[C@@H](CO)OC3)c12 [nemtabrutinib] , I found its Percentage inhibition of kinase enzyme activity recorded as 53.09

###

Entries and their measured Percentage inhibition of kinase enzyme activity follow.
# TARGET OR SYSTEM: HER4 (Homo sapiens)
# Construct: purchased Carna Biosciences
# Sequence (Q15303 26-1308): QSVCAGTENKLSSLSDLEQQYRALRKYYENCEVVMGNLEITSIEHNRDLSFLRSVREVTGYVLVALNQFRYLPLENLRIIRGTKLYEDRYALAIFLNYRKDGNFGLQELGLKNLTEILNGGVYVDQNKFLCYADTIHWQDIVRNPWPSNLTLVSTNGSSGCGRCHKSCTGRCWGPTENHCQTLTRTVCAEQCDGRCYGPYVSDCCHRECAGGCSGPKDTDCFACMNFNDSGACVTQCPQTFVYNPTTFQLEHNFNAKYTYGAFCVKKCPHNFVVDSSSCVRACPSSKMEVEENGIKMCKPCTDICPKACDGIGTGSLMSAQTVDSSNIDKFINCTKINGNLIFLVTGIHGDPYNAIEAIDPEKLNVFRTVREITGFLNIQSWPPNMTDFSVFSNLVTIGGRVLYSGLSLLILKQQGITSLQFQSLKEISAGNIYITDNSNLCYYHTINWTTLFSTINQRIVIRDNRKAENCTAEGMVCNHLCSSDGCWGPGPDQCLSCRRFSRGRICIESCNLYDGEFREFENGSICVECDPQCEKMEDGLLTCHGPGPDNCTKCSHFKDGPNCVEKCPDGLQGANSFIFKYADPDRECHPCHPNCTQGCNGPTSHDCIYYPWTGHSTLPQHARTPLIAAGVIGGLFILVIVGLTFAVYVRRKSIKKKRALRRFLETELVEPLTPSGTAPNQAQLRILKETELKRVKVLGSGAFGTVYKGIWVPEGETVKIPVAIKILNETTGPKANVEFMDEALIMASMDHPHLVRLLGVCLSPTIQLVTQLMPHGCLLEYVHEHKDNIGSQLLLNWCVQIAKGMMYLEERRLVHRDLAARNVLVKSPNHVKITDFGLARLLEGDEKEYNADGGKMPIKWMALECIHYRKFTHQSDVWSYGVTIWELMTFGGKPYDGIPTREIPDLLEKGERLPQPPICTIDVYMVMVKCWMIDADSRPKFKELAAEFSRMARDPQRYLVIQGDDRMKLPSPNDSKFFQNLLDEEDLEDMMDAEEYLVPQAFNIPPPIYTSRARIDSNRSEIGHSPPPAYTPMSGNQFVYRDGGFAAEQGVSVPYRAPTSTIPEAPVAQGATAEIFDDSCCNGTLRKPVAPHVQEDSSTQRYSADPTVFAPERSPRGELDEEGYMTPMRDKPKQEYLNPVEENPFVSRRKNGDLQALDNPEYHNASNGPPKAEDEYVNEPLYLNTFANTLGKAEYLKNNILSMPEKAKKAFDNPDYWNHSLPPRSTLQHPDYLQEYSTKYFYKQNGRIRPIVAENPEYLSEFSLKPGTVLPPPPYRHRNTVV
# ASSAY COMMENT: Kinase panel profiling at 1 µmol/L (mobility shift assay, Carna)
# Type: biochemical
# MEASUREMENT SETUP: 1 µmol/L of BTK inhibitor
# unit: % | format: bare number

Example entries begin here.
C=CC(=O)N1CCC([C@@H]2CCNc3c(C(N)=O)c(-c4ccc(Oc5ccccc5)cc4)nn32)CC1    2.98
C=CC(=O)N1CCC[C@@H](n2nc(-c3ccc(Oc4ccccc4)cc3)c3c(N)ncnc32)C1    98.60
COc1ccc(F)cc1C(=O)NCc1ccc(-c2nn([C@@H](C)C(F)(F)F)c(N)c2C(N)=O)cc1    69.88
CC#CC(=O)N1CCC[C@H]1c1nc(-c2ccc(C(=O)Nc3ccccn3)cc2)c2c(N)nccn12    77.61

Shifting focus to the compound that follows.
Looking up "O=C(c1ccc(Oc2ccccc2)cc1Cl)c1c[nH]c2ncnc(N[C@@H]3CC[C@@H](CO)OC3)c12" , I found its Percentage inhibition of kinase enzyme activity recorded as 95.14

###

# TARGET OR SYSTEM: MARK4 (Homo sapiens)
# Construct: purchased Carna Biosciences
# Sequence (Q96L34 1-752): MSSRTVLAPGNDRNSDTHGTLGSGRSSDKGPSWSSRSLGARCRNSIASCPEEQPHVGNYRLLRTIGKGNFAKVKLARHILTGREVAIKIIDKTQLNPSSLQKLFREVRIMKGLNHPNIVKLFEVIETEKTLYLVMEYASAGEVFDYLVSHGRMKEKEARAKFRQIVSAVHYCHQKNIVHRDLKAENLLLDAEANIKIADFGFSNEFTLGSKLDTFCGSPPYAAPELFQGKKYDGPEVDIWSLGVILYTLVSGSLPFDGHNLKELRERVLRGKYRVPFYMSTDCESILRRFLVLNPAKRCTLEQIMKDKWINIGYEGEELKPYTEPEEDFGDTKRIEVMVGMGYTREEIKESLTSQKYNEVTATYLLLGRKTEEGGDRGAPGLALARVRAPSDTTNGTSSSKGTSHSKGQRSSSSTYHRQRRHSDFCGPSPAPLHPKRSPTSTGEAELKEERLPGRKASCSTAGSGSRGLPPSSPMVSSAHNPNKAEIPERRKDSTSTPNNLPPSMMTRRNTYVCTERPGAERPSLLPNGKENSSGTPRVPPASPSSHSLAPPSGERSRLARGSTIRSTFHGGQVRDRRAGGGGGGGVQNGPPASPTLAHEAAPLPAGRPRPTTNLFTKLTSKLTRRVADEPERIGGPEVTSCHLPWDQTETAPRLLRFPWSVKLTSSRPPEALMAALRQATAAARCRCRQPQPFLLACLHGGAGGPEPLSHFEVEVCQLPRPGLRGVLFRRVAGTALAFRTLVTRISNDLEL
# ASSAY COMMENT: Kinase panel profiling at 1 µmol/L (mobility shift assay, Carna)
# Type: biochemical
# MEASUREMENT SETUP: 1 µmol/L of BTK inhibitor
Entries and their measured Percentage inhibition of kinase enzyme activity follow.
# unit: % | format: bare number

Example entries begin here.
CC#CC(=O)N1CCC[C@H]1c1nc(-c2ccc(C(=O)Nc3ccccn3)cc2)c2c(N)nccn12 [acalabrutinib]    -15.24
O=C(c1ccc(Oc2ccccc2)cc1Cl)c1c[nH]c2ncnc(N[C@@H]3CC[C@@H](CO)OC3)c12 [nemtabrutinib]    20.90
COc1ccc(F)cc1C(=O)NCc1ccc(-c2nn([C@@H](C)C(F)(F)F)c(N)c2C(N)=O)cc1 [pirtobrutinib]    -2.93

Shifting focus to the compound that follows.
MARK4 (Homo sapiens) Percentage inhibition of kinase enzyme activity of C=CC(=O)N1CCC[C@@H](n2nc(-c3ccc(Oc4ccccc4)cc3)c3c(N)ncnc32)C1 [ibrutinib] is -14.26

###

# TARGET OR SYSTEM: BRSK1 (Homo sapiens)
# Construct: purchased Carna Biosciences
# Sequence (Q8TDC3 whole entry): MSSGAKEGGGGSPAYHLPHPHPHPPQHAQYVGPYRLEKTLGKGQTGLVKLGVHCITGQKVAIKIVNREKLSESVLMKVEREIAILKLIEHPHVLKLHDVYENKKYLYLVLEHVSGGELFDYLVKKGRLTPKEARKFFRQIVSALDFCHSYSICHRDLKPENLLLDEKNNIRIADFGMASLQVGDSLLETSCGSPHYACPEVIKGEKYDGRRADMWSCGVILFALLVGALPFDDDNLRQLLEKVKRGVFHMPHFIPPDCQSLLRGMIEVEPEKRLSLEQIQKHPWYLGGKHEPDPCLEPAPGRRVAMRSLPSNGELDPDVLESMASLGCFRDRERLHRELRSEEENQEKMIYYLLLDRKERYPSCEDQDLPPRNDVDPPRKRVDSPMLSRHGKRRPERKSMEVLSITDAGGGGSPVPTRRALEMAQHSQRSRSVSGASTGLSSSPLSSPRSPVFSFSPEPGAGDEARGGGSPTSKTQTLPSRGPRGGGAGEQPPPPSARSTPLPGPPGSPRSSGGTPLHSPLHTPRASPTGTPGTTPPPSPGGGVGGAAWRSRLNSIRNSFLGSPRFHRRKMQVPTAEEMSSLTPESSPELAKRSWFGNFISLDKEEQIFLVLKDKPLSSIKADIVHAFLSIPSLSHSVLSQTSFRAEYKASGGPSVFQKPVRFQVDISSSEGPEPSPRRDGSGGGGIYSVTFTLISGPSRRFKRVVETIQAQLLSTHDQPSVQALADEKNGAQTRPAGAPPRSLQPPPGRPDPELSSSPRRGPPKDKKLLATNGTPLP
# ASSAY COMMENT: Kinase panel profiling at 1 µmol/L (mobility shift assay, Carna)
# Assay type: biochemical
# MEASUREMENT SETUP: 1 µmol/L of BTK inhibitor
VALUE KIND: Percentage inhibition of kinase enzyme activity (%)
# unit: % | format: bare number

O=C(c1ccc(Oc2ccccc2)cc1Cl)c1c[nH]c2ncnc(N[C@@H]3CC[C@@H](CO)OC3)c12 [nemtabrutinib]    12.83
CC#CC(=O)N1CCC[C@H]1c1nc(-c2ccc(C(=O)Nc3ccccn3)cc2)c2c(N)nccn12 [acalabrutinib]    -1.79
COc1ccc(F)cc1C(=O)NCc1ccc(-c2nn([C@@H](C)C(F)(F)F)c(N)c2C(N)=O)cc1 [pirtobrutinib]    3.44

Shifting focus to the compound that follows.
Looking up C=CC(=O)N1CCC[C@@H](n2nc(-c3ccc(Oc4ccccc4)cc3)c3c(N)ncnc32)C1 [ibrutinib] , I found its Percentage inhibition of kinase enzyme activity recorded as -7.32

###

# TARGET OR SYSTEM: IRAK1 (Homo sapiens)
# Construct: purchased Carna Biosciences
# Sequence (P51617 whole entry): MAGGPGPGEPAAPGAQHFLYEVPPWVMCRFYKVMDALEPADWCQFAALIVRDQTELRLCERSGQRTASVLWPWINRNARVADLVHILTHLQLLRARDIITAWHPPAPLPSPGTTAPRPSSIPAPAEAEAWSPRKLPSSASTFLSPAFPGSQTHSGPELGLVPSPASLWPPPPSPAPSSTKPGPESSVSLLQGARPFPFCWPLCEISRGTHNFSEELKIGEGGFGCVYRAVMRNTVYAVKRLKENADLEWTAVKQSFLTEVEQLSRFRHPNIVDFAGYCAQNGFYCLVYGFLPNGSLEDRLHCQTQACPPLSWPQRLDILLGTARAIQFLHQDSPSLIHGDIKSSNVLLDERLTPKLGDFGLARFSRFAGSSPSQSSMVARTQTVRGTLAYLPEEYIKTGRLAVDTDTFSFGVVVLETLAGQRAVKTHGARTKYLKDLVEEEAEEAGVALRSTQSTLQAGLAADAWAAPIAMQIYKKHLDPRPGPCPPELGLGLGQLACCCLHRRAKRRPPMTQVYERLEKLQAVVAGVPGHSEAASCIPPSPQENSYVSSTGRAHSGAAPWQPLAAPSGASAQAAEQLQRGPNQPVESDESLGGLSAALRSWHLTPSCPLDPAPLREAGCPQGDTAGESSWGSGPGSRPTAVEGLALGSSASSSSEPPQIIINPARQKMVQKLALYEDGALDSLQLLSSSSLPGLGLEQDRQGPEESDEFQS
# ASSAY COMMENT: Kinase panel profiling at 1 µmol/L (mobility shift assay, Carna)
# Type: biochemical
# MEASUREMENT SETUP: 1 µmol/L of BTK inhibitor
Entries and their measured Percentage inhibition of kinase enzyme activity follow.
# unit: % | format: bare number

Example entries begin here.
COc1ccc(F)cc1C(=O)NCc1ccc(-c2nn([C@@H](C)C(F)(F)F)c(N)c2C(N)=O)cc1 [pirtobrutinib]    -6.46
C=CC(=O)N1CCC[C@@H](n2nc(-c3ccc(Oc4ccccc4)cc3)c3c(N)ncnc32)C1 [ibrutinib]    -10.80
CC#CC(=O)N1CCC[C@H]1c1nc(-c2ccc(C(=O)Nc3ccccn3)cc2)c2c(N)nccn12 [acalabrutinib]    -7.06

Shifting focus to the molecule that follows.
Looking up O=C(c1ccc(Oc2ccccc2)cc1Cl)c1c[nH]c2ncnc(N[C@@H]3CC[C@@H](CO)OC3)c12 [nemtabrutinib] , I found its Percentage inhibition of kinase enzyme activity recorded as -0.39
